Test system: synthetic oligopeptides
Type: biochemical
Conditions: substrate MQDYLT (SEQ ID NO:9), 4 mM oligopeptide, pH 7.5, 37° C.
Listing: Specific activity (unit/mg) of selected molecules
Don't forget the unit after the value.

molecule	test.result
MetAP-YMQ: wild type E. coli Met aminopeptidase (SEQ ID NO:1) (protein, listed as Escherichia coli) MAISIKTPEDIEKMRVAGRLAAEVLEMIEPYVKPGVSTGELDRICNDYIVNEQHAVSACLGYHGYPKSVCISINEVVCHGIPDDAKLLKDGDIVNIDVTVIKDGFHGDTSKMFIVGKPTIMGERLCRITQESLYLALRMVKPGINLREIGAAIQKFVEAEGFSVVREYCGHGIGRGFHEEPQVLHYDSRETNVVLKPGMTFTIEPMVNAGKKEIRTMKDGWTVKTKDRSLSAQYEHTIVVTDNGCEILTLRKDDTIPAIISHDE	0.43 ± 0.01 unit/mg

Query: Specific activity (unit/mg); subject: MetAP-*GG (protein) AISIKTPEDIEKMRVAGRLAAEVLEMIEPYVKPGVSTGELDRICNDYIVNEQHAVSACLGYHGYPKSVCISINEVVCHGIPDDAKLLKDGDIVNIDVTVIKDGFHGDTSKMFIVGKPTIMGERLCRITQESLYLALRMVKPGINLREIGAAIQKFVEAEGFSVVREYCGHGIGRGFHEEPQVLHYDSRETNVVLKPGMTFTIEPGVNAGKKEIRTMKDGWTVKTKDRSLSAGYEHTIVVTDNGCEILTLRKDDTIPAIISHDE 0.29 ± 0.02 unit/mg

Query: Specific activity (unit/mg); subject: MetAP-GTG (protein) AISIKTPEDIEKMRVAGRLAAEVLEMIEPYVKPGVSTGELDRICNDYIVNEQHAVSACLGYHGYPKSVCISINEVVCHGIPDDAKLLKDGDIVNIDVTVIKDGFHGDTSKMFIVGKPTIMGERLCRITQESLYLALRMVKPGINLREIGAAIQKFVEAEGFSVVREGCGHGIGRGFHEEPQVLHYDSRETNVVLKPGMTFTIEPTVNAGKKEIRTMKDGWTVKTKDRSLSAGYEHTIVVTDNGCEILTLRKDDTIPAIISHDE 0.23 ± 0.01 unit/mg

Query: Specific activity (unit/mg); subject: MetAP-*TG (protein) AISIKTPEDIEKMRVAGRLAAEVLEMIEPYVKPGVSTGELDRICNDYIVNEQHAVSACLGYHGYPKSVCISINEVVCHGIPDDAKLLKDGDIVNIDVTVIKDGFHGDTSKMFIVGKPTIMGERLCRITQESLYLALRMVKPGINLREIGAAIQKFVEAEGFSVVREYCGHGIGRGFHEEPQVLHYDSRETNVVLKPGMTFTIEPTVNAGKKEIRTMKDGWTVKTKDRSLSAGYEHTIVVTDNGCEILTLRKDDTIPAIISHDE 0.42 ± 0.02 unit/mg

Query: Specific activity (unit/mg); subject: MetAP-*TT (protein) AISIKTPEDIEKMRVAGRLAAEVLEMIEPYVKPGVSTGELDRICNDYIVNEQHAVSACLGYHGYPKSVCISINEVVCHGIPDDAKLLKDGDIVNIDVTVIKDGFHGDTSKMFIVGKPTIMGERLCRITQESLYLALRMVKPGINLREIGAAIQKFVEAEGFSVVREYCGHGIGRGFHEEPQVLHYDSRETNVVLKPGMTFTIEPTVNAGKKEIRTMKDGWTVKTKDRSLSATYEHTIVVTDNGCEILTLRKDDTIPAIISHDE 0.13 ± 0.01 unit/mg
